Target: D-amino-acid oxidase (Sus scrofa)
Sequence (P00371 whole entry): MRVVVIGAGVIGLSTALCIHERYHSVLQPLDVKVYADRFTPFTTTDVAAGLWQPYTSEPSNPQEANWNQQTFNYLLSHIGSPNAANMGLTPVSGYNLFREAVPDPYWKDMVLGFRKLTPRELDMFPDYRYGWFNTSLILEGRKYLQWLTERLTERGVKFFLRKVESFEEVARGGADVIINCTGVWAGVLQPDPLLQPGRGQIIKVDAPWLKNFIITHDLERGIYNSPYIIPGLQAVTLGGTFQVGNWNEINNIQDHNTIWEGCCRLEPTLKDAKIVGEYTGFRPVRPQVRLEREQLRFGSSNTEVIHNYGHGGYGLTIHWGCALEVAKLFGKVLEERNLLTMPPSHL
Measurement Label: IC50

Form field IC50, entry O=c1[nH]oc2c1CCCC2 [4,5,6,7-tetrahydrobenzo[d]isoxazol-3-ol] : > 100 µM
